Where do the numbers come from? From paper PMC11649115.

# Tested on: CYP1A2 mRNA
# Test Method Notes: CYP induction, mRNA, primary cultured human hepatocytes
# Assay type: in vitro ADME
# Condition Label: Lot 336, 1 μM, read-out: CYP1A2 mRNA Fold Induction (fold of vehicle control)
Parameter Measured: fold induction at 48 h, 1 µM

## Task For CCc1cc(Cl)c(OC)c(N2CCN(CC(O)CCNC(=O)c3cc4ccccc4[nH]3)CC2)c1 (stereo not shown) , write its fold induction at 48 h, 1 µM.
## Result 1.6

* * *

# Tested on: CYP1A2 mRNA
# Test Method Notes: CYP induction, mRNA, primary cultured human hepatocytes
# Format: in vitro ADME
# Condition Label: Lot 348B, 0.01 μM, read-out: CYP1A2 mRNA Fold Induction (fold of vehicle control)
Parameter Measured: fold induction at 48 h, 0.01 µM
Write the number on its own, no unit after it.

## Task Jot down fold induction at 48 h, 0.01 µM (CYP1A2 mRNA) of CCc1cc(Cl)c(OC)c(N2CCN(CC(O)CCNC(=O)c3cc4ccccc4[nH]3)CC2)c1 (stereo not shown) .
## Result 1.1

* * *

Could you please report measured activity at 20 min, 3 µM for the items listed next?
# Target Desc: CYP2C8 (Homo sapiens)
# Sequence (P10632 1-490): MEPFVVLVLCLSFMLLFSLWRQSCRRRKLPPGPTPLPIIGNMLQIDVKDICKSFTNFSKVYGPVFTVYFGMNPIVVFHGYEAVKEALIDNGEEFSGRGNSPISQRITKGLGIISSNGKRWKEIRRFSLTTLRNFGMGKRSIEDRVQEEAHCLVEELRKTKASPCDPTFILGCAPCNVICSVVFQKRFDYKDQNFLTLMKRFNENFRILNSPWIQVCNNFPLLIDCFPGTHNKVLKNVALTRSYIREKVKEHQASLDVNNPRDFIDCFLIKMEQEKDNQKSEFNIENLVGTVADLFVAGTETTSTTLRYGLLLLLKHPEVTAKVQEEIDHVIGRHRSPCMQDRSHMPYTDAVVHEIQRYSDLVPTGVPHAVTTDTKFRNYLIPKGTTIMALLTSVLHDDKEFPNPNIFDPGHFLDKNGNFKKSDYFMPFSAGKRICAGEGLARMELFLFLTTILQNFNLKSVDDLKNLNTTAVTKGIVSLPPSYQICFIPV
# Test Method Notes: CYP inhibition in human liver microsomes
# Condition Label: human, human liver microsomes, probe paclitaxel
# answer = value followed by unit

## Task Query activity at 20 min, 3 µM for CCc1cc(Cl)c(OC)c(N2CCN(CC(O)CCNC(=O)c3cc4ccccc4[nH]3)CC2)c1 (centres unmarked)
## Result 95.7%

## Task Note activity at 20 min, 3 µM for the compound shown: Nc1ccc(S(=O)(=O)Nc2ccnn2-c2ccccc2)cc1
## Result 97.6%

* * *

Record form. Attribute: activity at 20 min, 3 µM. Fill in for each entry.
# Target Desc: CYP2D6 (Homo sapiens, UniProt P10635)
# Sequence (P10635 whole entry): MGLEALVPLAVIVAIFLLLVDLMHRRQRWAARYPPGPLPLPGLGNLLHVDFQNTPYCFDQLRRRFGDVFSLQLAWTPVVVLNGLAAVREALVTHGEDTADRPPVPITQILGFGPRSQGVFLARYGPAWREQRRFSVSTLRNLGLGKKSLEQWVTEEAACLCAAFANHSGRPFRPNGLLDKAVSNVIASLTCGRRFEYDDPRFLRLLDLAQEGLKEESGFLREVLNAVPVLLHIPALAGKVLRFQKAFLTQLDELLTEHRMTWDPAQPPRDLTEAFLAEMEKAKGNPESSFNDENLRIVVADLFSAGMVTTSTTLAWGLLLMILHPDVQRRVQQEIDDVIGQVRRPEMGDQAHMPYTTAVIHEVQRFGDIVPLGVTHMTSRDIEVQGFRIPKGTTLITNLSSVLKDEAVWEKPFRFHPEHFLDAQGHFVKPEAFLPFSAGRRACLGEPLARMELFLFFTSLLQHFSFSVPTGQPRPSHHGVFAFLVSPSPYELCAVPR
# Test Method Notes: CYP inhibition in human liver microsomes
# Condition Label: human, human liver microsomes, probe bufuralol
The response must be a number in % with no trailing unit.

## Task Please indicate recorded activity at 20 min, 3 µM of Nc1ccc(S(=O)(=O)Nc2ccnn2-c2ccccc2)cc1 [Sulfaphenazole] measured with CYP2D6 (Homo sapiens, UniProt P10635).
## Result 94.8

## Task Retrieve activity at 20 min, 3 µM on CYP2D6 (Homo sapiens, UniProt P10635); query CCc1cc(Cl)c(OC)c(N2CCN(CC(O)CCNC(=O)c3cc4ccccc4[nH]3)CC2)c1 (centres unmarked) [R-VK4-116]
## Result 92.1

* * *

# Test system: CYP1A2 mRNA
# Test Method Notes: CYP induction, mRNA, primary cultured human hepatocytes
# Type: in vitro ADME
# Condition Label: Lot 399, 0.1 μM, read-out: CYP1A2 mRNA Fold Induction (fold of vehicle control)
Parameter Measured: fold induction at 48 h, 0.1 µM

## Task State fold induction at 48 h, 0.1 µM on CYP1A2 mRNA. Entry: CCc1cc(Cl)c(OC)c(N2CCN(CC(O)CCNC(=O)c3cc4ccccc4[nH]3)CC2)c1 (stereo not shown) [R-VK4-116]
## Result 1.8

* * *

# Test Method Notes: Metabolic stability in liver microsomes
# Condition Label: human, liver microsomes, pH 7.4
Parameter Measured: remaining at 0 h, 1 μM (%)
# number only, unit % dropped from output

## Task For the compound CCc1cc(Cl)c(OC)c(N2CCN(CC(O)CCNC(=O)c3cc4ccccc4[nH]3)CC2)c1 (stereo not shown) [R-VK4-116] , give its reported remaining at 0 h, 1 μM.
## Result 100

* * *

# Test Method Notes: Metabolic stability in liver microsomes
# Condition Label: dog, liver microsomes, pH 7.4
Parameter Measured: remaining at 1.5 h, 10 μM (%)
The figure you give is taken to be in %; do not add the unit.

## Task Dear colleague, please send me the reported remaining at 1.5 h, 10 μM for CCc1cc(Cl)c(OC)c(N2CCN(CC(O)CCNC(=O)c3cc4ccccc4[nH]3)CC2)c1 (stereo not shown) when you can.
## Result 55.6

* * *

# Target Desc: BCRP (Homo sapiens)
# Construct: expressed in transfected cells; host or cells: MDCK-II cells
# Sequence (Q9UNQ0 whole entry): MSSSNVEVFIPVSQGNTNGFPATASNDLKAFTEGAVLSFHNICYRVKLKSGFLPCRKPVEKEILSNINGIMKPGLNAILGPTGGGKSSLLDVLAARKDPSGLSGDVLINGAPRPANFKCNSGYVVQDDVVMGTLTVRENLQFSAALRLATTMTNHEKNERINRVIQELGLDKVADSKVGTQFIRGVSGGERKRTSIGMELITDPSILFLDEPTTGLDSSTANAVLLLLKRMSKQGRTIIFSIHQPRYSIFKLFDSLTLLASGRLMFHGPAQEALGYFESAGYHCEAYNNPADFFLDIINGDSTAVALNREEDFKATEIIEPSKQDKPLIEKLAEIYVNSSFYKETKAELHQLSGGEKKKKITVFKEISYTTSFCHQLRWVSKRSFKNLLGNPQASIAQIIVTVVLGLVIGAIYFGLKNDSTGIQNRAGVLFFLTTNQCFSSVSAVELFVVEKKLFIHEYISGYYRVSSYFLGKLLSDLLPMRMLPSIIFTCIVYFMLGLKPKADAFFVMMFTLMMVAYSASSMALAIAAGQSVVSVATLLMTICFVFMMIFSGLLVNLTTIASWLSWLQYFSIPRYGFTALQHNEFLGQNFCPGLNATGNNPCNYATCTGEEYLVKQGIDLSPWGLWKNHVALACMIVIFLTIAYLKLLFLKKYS
# Test Method Notes: Transporter mediated assay (substrate/inhibitor), MDCK-II cells
# Type: in vitro ADME
# Condition Label: BCRP, substrate test, 1 µM
Parameter Measured: Papp B→A at 1 µM

## Task Kindly indicate its recorded Papp B→A at 1 µM. Item: CCc1cc(Cl)c(OC)c(N2CCN(CC(O)CCNC(=O)c3cc4ccccc4[nH]3)CC2)c1 (stereo not shown)
## Result < 0.1 ×10⁻⁶ cm/s

* * *

# Test Method Notes: Metabolic stability in liver microsomes
# Condition Label: monkey, liver microsomes, pH 7.4
Parameter Measured: remaining at 2 h, 1 μM (%)
Entry rule: numbers only, all in %.

## Task Check the records and state remaining at 2 h, 1 μM for CCc1cc(Cl)c(OC)c(N2CCN(CC(O)CCNC(=O)c3cc4ccccc4[nH]3)CC2)c1 (stereo not shown)
## Result 15

* * *

# Target Desc: CYP2C8 (Homo sapiens)
# Test Method Notes: CYP inhibition in human liver microsomes
# Condition Label: human, human liver microsomes, probe paclitaxel
Parameter Measured: activity at 20 min, 30 µM

## Task Answer with the recorded activity at 20 min, 30 µM for the compound listed here: CCc1cc(Cl)c(OC)c(N2CCN(CC(O)CCNC(=O)c3cc4ccccc4[nH]3)CC2)c1 (stereo not shown)
## Result 75.8%

* * *

# Test Method Notes: Phospholipidosis and steatosis, high content screening
# Format: cell-based
# Condition Label: human, HepG2 cells, read-out: Cell count, AC50
Can you tell me AC50 for the items I'm about to list?
Express it in µM; write the number only.

## Task Read off the recorded AC50 for CC/C(=C(\c1ccccc1)c1ccc(OCCN(C)C)cc1)c1ccccc1 [Tamoxifen]
## Result 0.442

## Task Tell us which AC50 value is on record for CN[C@H]1CC[C@@H](c2ccc(Cl)c(Cl)c2)c2ccccc21 [Sertraline]
## Result 2.48

* * *

# Target Desc: CYP2C9 (Homo sapiens)
# Sequence (P11712 whole entry): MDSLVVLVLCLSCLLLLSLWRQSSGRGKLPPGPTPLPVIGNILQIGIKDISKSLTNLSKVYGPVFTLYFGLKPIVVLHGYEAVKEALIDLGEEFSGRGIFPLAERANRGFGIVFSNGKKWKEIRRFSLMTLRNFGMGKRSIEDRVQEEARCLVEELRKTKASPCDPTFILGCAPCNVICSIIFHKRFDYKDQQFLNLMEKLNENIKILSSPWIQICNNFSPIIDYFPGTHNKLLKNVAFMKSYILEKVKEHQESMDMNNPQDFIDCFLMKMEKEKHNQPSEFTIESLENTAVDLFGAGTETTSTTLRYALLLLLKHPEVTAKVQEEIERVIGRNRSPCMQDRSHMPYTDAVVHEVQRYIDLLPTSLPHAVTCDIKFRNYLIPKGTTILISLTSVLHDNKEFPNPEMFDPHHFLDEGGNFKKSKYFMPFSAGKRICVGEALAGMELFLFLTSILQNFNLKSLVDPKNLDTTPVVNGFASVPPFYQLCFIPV
# Test Method Notes: CYP inhibition in human liver microsomes
# Condition Label: human, human liver microsomes, probe diclofenac
Parameter Measured: activity at 20 min, 5 µM (%)
Supply the numeric figure in %, leaving out any unit text.

## Task Dear colleague, please send me the reported activity at 20 min, 5 µM for CC(=O)N1CCN(c2ccc(OCC3COC(Cn4ccnc4)(c4ccc(Cl)cc4Cl)O3)cc2)CC1 (stereo not shown) when you can.
## Result 65.8

* * *

# Tested on: CYP2B6 mRNA
# Test Method Notes: CYP induction, mRNA, primary cultured human hepatocytes
# Condition Label: primary cultured human hepatocytes, Fold Induction (CYP2B6 mRNA expression), hepatocyte Lot 399, 0.01 µM
Parameter Measured: fold induction at 48 h, 0.01 µM
Kindly provide the number alone.

## Task Enter measured fold induction at 48 h, 0.01 µM, system CYP2B6 mRNA, for the molecule shown: CCc1cc(Cl)c(OC)c(N2CCN(CC(O)CCNC(=O)c3cc4ccccc4[nH]3)CC2)c1 (stereo not shown)
## Result 1.1

* * *

# System: CYP2B6
# Test Method Notes: CYP induction, mRNA, primary cultured human hepatocytes
# Condition Label: primary cultured human hepatocytes, Fold Induction (CYP2B6 mRNA expression), hepatocyte Lot 336, 5 µM
Parameter Measured: fold induction at 48 h, 5 µM
The response must contain the number and no unit.

## Task Identify measured fold induction at 48 h, 5 µM corresponding to CCc1cc(Cl)c(OC)c(N2CCN(CC(O)CCNC(=O)c3cc4ccccc4[nH]3)CC2)c1 (stereo not shown)
## Result 1.8

* * *

# Test Method Notes: Metabolic stability in liver microsomes
# Condition Label: monkey, liver microsomes, pH 7.4
Parameter Measured: remaining at 2 h, 10 μM

## Task Return reported remaining at 2 h, 10 μM. Input molecule: CCc1cc(Cl)c(OC)c(N2CCN(CC(O)CCNC(=O)c3cc4ccccc4[nH]3)CC2)c1 (stereo not shown)
## Result 39.7%
